- System: Plasmodium berghei
- measurement_protocol: Luciferase/luciferin-expressing antifolate-resistant parasites were used to infect a culture of HepG2 cells that were pre-incubated with compounds. Infected hepatocytes emit light due to the luciferase reaction. Assay results are presented as the percent inhibition of light emission compared to control. […]
- Type: functional
- experimental_conditions: sporozoite, PBLUC_HILL_SLOPE 1.44, PBLUC_R_SQUARED 0.637, read-out: LUCIFERASE INFECTION ASSAY - IC50
reported_endpoint: IC50 (µM)
Give bare numbers, in µM.

Recorded IC50 for Cc1cc(C)c(S(=O)(=O)N2CCC(C(=O)N3CCn4c3nc3ccccc34)CC2)c(C)c1 on Plasmodium berghei was 3.45

---

- Test system: Plasmodium berghei
- measurement_protocol: Luciferase/luciferin-expressing antifolate-resistant parasites were used to infect a culture of HepG2 cells that were pre-incubated with compounds. Infected hepatocytes emit light due to the luciferase reaction. Assay results are presented as the percent inhibition of light emission compared to control. […]
- Format: functional
- experimental_conditions: sporozoite, HEPG2TOX_HILL_SLOPE 2.67, HEPG2TOX_R_SQUARED 0.896, PBLUC_HILL_SLOPE 4.33, PBLUC_R_SQUARED 0.342, read-out: LUCIFERASE INFECTION ASSAY - IC50
reported_endpoint: IC50 (µM)
Give bare numbers, in µM.

Consider CO/N=C(/CS(=O)(=O)c1ccc(OC)cc1)c1ccc(Cl)cc1 . Its measured IC50 is 6.46

---

- System: Plasmodium berghei
- measurement_protocol: Luciferase/luciferin-expressing antifolate-resistant parasites were used to infect a culture of HepG2 cells that were pre-incubated with compounds. Infected hepatocytes emit light due to the luciferase reaction. Assay results are presented as the percent inhibition of light emission compared to control. […]
- Assay type: functional
- experimental_conditions: sporozoite, read-out: LUCIFERASE INFECTION ASSAY - IC90
reported_endpoint: IC90

A selection of reference data follows.
CC(C)(C)NC(=O)CNC(=O)c1cc(-c2ccccc2)nc2c1cnn2Cc1ccccc1 :: > 10 µM
COc1ccc(F)cc1-c1csc(-c2ccc(NC(=O)c3cccs3)cc2)n1 :: > 10 µM
COc1ccc(C(NC(=O)c2ccc(-n3cccc3)cc2)c2nccn2C)cc1 (stereo unspecified) :: > 10 µM
OCc1cccc(-c2cnc3cnc(-c4ccc(CNc5ccccc5)cc4)cn23)c1 :: > 8.12 µM
CC1(C)C=Cc2cc(/C(N)=N/OC(=O)c3ccccc3)ccc2O1 :: 0.211 µM

Respectfully, I request IC90 for each entry included below.
1. CSc1ccc(OC(=O)Nc2ccccc2)cc1
2. COc1cc(NC(=O)C(C)(C)n2cc(-c3cccnc3)cn2)cc(OC)c1

[A]
> 12.7 µM
> 10 µM

---

- Test system: Plasmodium berghei
- measurement_protocol: Luciferase/luciferin-expressing antifolate-resistant parasites were used to infect a culture of HepG2 cells that were pre-incubated with compounds. Infected hepatocytes emit light due to the luciferase reaction. Assay results are presented as the percent inhibition of light emission compared to control. […]
- Type: functional
- experimental_conditions: sporozoite, PBLUC_HILL_SLOPE 3.31, PBLUC_R_SQUARED 0.596, read-out: LUCIFERASE INFECTION ASSAY - IC50
reported_endpoint: pIC50
Numbers only, as −log10 of the molar value.

Recorded pIC50 for CN1CCN(c2ccc(NC(=O)c3c[nH]c4ccc(Br)cc34)cn2)CC1 on Plasmodium berghei was 5.09

---

- System: Plasmodium berghei
- measurement_protocol: Luciferase/luciferin-expressing antifolate-resistant parasites were used to infect a culture of HepG2 cells that were pre-incubated with compounds. Infected hepatocytes emit light due to the luciferase reaction. Assay results are presented as the percent inhibition of light emission compared to control. […]
- Format: functional
- experimental_conditions: sporozoite, HEPG2TOX_HILL_SLOPE 113, HEPG2TOX_R_SQUARED 0.62, read-out: LUCIFERASE INFECTION ASSAY - IC50
pIC50: −log10 of the molar value.
reported_endpoint: pIC50

Consider CCOC(=O)c1c(C)[nH]c(C(=O)C(C)OC(=O)c2ccc(S(=O)(=O)N(C)c3ccccc3OC)cc2)c1C (stereo unspecified) . Its measured pIC50 is < 5.00

---

- Test system: Plasmodium berghei
- measurement_protocol: Luciferase/luciferin-expressing antifolate-resistant parasites were used to infect a culture of HepG2 cells that were pre-incubated with compounds. Infected hepatocytes emit light due to the luciferase reaction. Assay results are presented as the percent inhibition of light emission compared to control. […]
- Type: functional
- experimental_conditions: sporozoite, PBLUC_HILL_SLOPE 0.774, PBLUC_R_SQUARED 0.875, read-out: LUCIFERASE INFECTION ASSAY - IC50
reported_endpoint: pIC50
Answers are plain numbers, as −log10 of the molar value.

Consider Cc1ccc(-c2cnc3c(Nc4ccc(NS(=O)(=O)c5ccc(C)cc5)cc4)nccn23)cc1 . Its measured pIC50 is 5.96

---

- System: Plasmodium berghei
- measurement_protocol: Luciferase/luciferin-expressing antifolate-resistant parasites were used to infect a culture of HepG2 cells that were pre-incubated with compounds. Infected hepatocytes emit light due to the luciferase reaction. Assay results are presented as the percent inhibition of light emission compared to control. […]
- Type: functional
- experimental_conditions: sporozoite, FFLUC_HILL_SLOPE 19.6, FFLUC_R_SQUARED 0.491, PBLUC_HILL_SLOPE 5.23, PBLUC_R_SQUARED 0.568, read-out: LUCIFERASE INFECTION ASSAY - IC50
reported_endpoint: IC50 (µM)
Answers are plain numbers, in µM.

Consider CC1Cc2ccccc2N1C(=O)CSC1=NNC(=C2N=Nc3ccccc32)N1c1ccccc1 (stereo unspecified) . Its measured IC50 is 5.48

---

- Test system: Plasmodium berghei
- measurement_protocol: Luciferase/luciferin-expressing antifolate-resistant parasites were used to infect a culture of HepG2 cells that were pre-incubated with compounds. Infected hepatocytes emit light due to the luciferase reaction. Assay results are presented as the percent inhibition of light emission compared to control. […]
- Type: functional
- experimental_conditions: sporozoite, read-out: LUCIFERASE INFECTION ASSAY - IC90
Can you tell me IC90 for the items I'm about to list?

O=C(OCc1cc(=O)oc2cc(O)ccc12)c1ccc(Cl)c(S(=O)(=O)N2CCCCCC2)c1 :: > 10 µM
CCOC(=O)c1c(-c2csc(Nc3ccccn3)n2)c(C)n(CC)c1C :: > 10 µM

Respectfully, I request IC90 for each entry included below.
1. COc1ccc(NC(=O)c2ccc(NC(=O)c3nc4nccc(C)n4n3)cc2)cc1
2. C=C(C)CNC(=S)N/N=C1\C(=O)Nc2ccc([N+](=O)[O-])cc21

[A]
> 10 µM
> 10 µM

Respectfully, I request IC90 for each entry included below.
1. COC(=O)c1c(NC(=O)C2CCOC2)c2cc(NCC(C)(C)C)cnc2n1CCc1c[nH]c2ccccc12 (configuration not stated)
2. COc1ccc2oc(C(=O)Nc3nnc(C(C)C)s3)c(C)c2c1
3. CCN(CC)CCn1c(NC(=O)c2cc(C(C)=O)c[nH]2)nc2ccccc21
4. O=C(/C=C/c1ccco1)Nc1ccc(Cl)cc1Cl
5. CN(Cc1ccc(Cl)s1)C(=O)Cn1ncc(Br)c(Br)c1=O
6. Cc1noc(-c2ccc(Cl)cc2)c1C(=O)ON=C(N)c1ccc(C(C)(C)C)cc1

[A]
> 6.38 µM
> 10 µM
> 10 µM
11.1 µM
8.7 µM
> 8.01 µM

---

Can you tell me IC90 for the items I'm about to list?
- Tested on: Plasmodium berghei
- measurement_protocol: Luciferase/luciferin-expressing antifolate-resistant parasites were used to infect a culture of HepG2 cells that were pre-incubated with compounds. Infected hepatocytes emit light due to the luciferase reaction. Assay results are presented as the percent inhibition of light emission compared to control. […]
- Format: functional
- experimental_conditions: sporozoite, read-out: LUCIFERASE INFECTION ASSAY - IC90
Give bare numbers, in µM.

A selection of reference data follows.
COc1cccc(-c2nc3ccnc(NCCc4ccccc4)c3[nH]2)c1 :: 7.63
Cc1n(-c2ccccc2)c2c([n+]1C)C(=O)c1ccccc1C2=O :: 0.202
COc1cc(C)c(C(c2ccc(N(C)C)cc2)c2ccc(N(C)C)cc2)cc1C :: 6.45
CN(C)c1cccc(-c2ccc3nnc(-c4ccc5c(c4)OCO5)n3c2)c1 :: 5.11
O=C(Nc1c2ccccc2nc2ccccc12)c1[nH]nc2c1CCCC2 :: 4.07

Now let's try a different one.
Consider Cc1ccc(-c2nc(NC(=O)c3ccc4c(=O)[nH]c(=O)n(C)c4n3)sc2-c2ccc(C)cc2)cc1 . Its measured IC90 is 4.58

---

- Test system: Plasmodium berghei
- measurement_protocol: Luciferase/luciferin-expressing antifolate-resistant parasites were used to infect a culture of HepG2 cells that were pre-incubated with compounds. Infected hepatocytes emit light due to the luciferase reaction. Assay results are presented as the percent inhibition of light emission compared to control. […]
- Type: functional
- experimental_conditions: sporozoite, HEPG2TOX_HILL_SLOPE 2.6, HEPG2TOX_R_SQUARED 0.953, PBLUC_HILL_SLOPE 75.6, PBLUC_R_SQUARED 0.403, read-out: LUCIFERASE INFECTION ASSAY - IC50
reported_endpoint: IC50 (µM)
Answers are plain numbers, in µM.

Consider c1cncc(CCNc2nccn3c(-c4ccc5ccccc5c4)cnc23)c1 . Its measured IC50 is 4.99
